Listing: RP-LC retention time of selected molecules
# procedure details: gradient 5% acetonitrile 3 min, to 50% in 2 min, to 85% in 15 min, held 3 min, 100 µL/min
# setup conditions: column: Zorbax Extend-C18 2.1 x 50 mm; eluents: water / acetonitrile, 0.1% formic acid

Sample answers from the record:
> print(dat)
                                   molecule  result
1  CCCC(C)NC(=O)CN1c2ccc(F)cc2-c2ccccc2S1(=O)=O (configuration not stated)   950 s
2  CCc1ccc(CNC(=O)c2cccc(C3CCCN(C(=O)NC)C3)c2)cc1 (configuration not stated)   854 s
3  COc1ccc(NC(=O)CSc2nccc(N3CCN(c4cccc(OC)c4)CC3)n2)cc1   735 s
4  O=C1CSc2ccc(S(=O)(=O)N3CCC(C(=O)NC4CCCC4)CC3)cc2N1   746 s

Can you look up the measured RP-LC retention time of `Cc1cc(C)c(S(=O)(=O)N2CC(F)(F)C[C@H]2COc2cccnc2)cc1C` for me?
817 s

Form field: reported RP-LC retention time of `Cc1cccc(NC(=O)N2CCC(n3cnc4ccc(C)cc4c3=O)CC2)c1`
836 s

* * *

# procedure details: gradient 5% acetonitrile 3 min, to 50% in 2 min, to 85% in 15 min, held 3 min, 100 µL/min
# setup conditions: column: Zorbax Extend-C18 2.1 x 50 mm; eluents: water / acetonitrile, 0.1% formic acid
recorded metric: RP-LC retention time (s)
Note: unit s is implicit; provide only the numeric part.

> print(dat)
                                   molecule  scale.unit  numeric.readout
1  COC(=O)c1ccc(OC)c(Cn2cnc3c(-c4ccccc4)csc3c2=O)c1           s              988
2  Cc1oc(C2CCN(C(=O)Nc3ccc(F)cc3)CC2)nc1C(=O)N1CCCC1           s              752
3  CC1=NS(=O)(=O)N(C)C=C1C(=O)OCc1nc(-c2ccc(OC(F)(F)F)cc2)no1           s             1100
4  COC(=O)C(C)Sc1ncnc2c1oc1ccccc12 (configuration not stated)           s              906
5  CC(CC(=O)N1CCN(Cc2ccccc2)CC1)S(=O)(=O)c1ccc2c(c1)CCN2C(=O)C1CC1 (configuration not stated)           s              656

Which value of RP-LC retention time has been reported for `COCCc1noc(-c2cnc3nc(C)ccc3c2Nc2ccccc2Cl)n1` in the records?
779

Look up RP-LC retention time for this molecule: `CNc1ccc2oc(C[C@H]3O[C@@]4(CC[C@H]3C)O[C@H]([C@H](C)C(=O)c3ccc[nH]3)[C@H](C)C[C@H]4C)nc2c1C(=O)O`
1030

Which RP-LC retention time is reported for this molecule? O=C(NC1CCCN(c2cc(-c3ccccc3)[nH]n2)C1)c1ccc2[nH]ccc2c1 (configuration not stated)
729

Recorded RP-LC retention time for CCOC(=O)C1=C(CN2CCCC2)NC(=O)NC1c1ccc(OC)cc1 (configuration not stated) , please?
597

Value lookup for RP-LC retention time; key = `Nc1ccc(CCN2CCN(c3cccc(C(F)(F)F)c3)CC2)cc1`
633

Fill blank: measured RP-LC retention time of the molecule `CC1(C)C(=O)N(CC(=O)Nc2ccc(F)cc2)c2ccccc21` is ____.
866

// query RP-LC retention time value for entry `Cn1cc(C2=CCN(CC(=O)N3CCN(c4ccc(F)cc4)CC3)CC2)cn1`
612

* * *

# procedure details: gradient 5% acetonitrile 3 min, to 50% in 2 min, to 85% in 15 min, held 3 min, 100 µL/min
# setup conditions: column: Zorbax Extend-C18 2.1 x 50 mm; eluents: water / acetonitrile, 0.1% formic acid
Here the recorded RP-LC retention time is given for each entry.

Previously resolved entries follow.
> print(dat)
                                   compound       recorded.metric  result
1  COc1ccc(NC(=O)N2C[C@@H](F)C[C@H]2C(=O)N2CCc3ccccc3C2)cc1F  RP-LC retention time   797 s
2  O=C(CC1CCN(C(=O)c2ccc3oc(-c4ccccc4)nc3c2)CC1)N1CCCC1  RP-LC retention time   782 s
3  COC1C(=O)N(c2cccc(F)c2)C12CCN(S(=O)(=O)Cc1ccccc1F)CC2 (stereo not given)  RP-LC retention time  1040 s
4  COc1cc(NC(=O)c2ncoc2-c2ccc(C)o2)cc(OC)c1OC  RP-LC retention time   920 s
5  O=C(c1ccccc1)N1C[C@@H]2C[C@H]1C[C@@H]2NS(=O)(=O)c1ccccc1  RP-LC retention time   752 s

Request the reported RP-LC retention time associated with `Cn1nc(C(=O)N2C[C@@H]3C[C@H]2C[C@@H]3NC(=O)c2cccs2)c2ccccc21`
766 s

Look at this compound and give its reported RP-LC retention time. `Cc1ccc(S(=O)(=O)N2C[C@@H](F)C[C@H]2C(=O)N2CCc3ccccc3C2)cc1C`
973 s

State the recorded RP-LC retention time for this entry: `COc1cc(OC)c(NC(=O)COc2nc(C)nc3ccccc23)cc1Cl`
771 s

Please report the recorded RP-LC retention time for `CCOC(=O)COC(=O)c1cn(-c2ccc(F)cc2)c(=O)c2ccccc12` .
1030 s

Fill in: RP-LC retention time of `O=C(NCCn1ncccc1=O)c1ccc(OCc2nc(-c3ccco3)cs2)cc1` is ___
690 s

* * *

# procedure details: gradient 5% acetonitrile 3 min, to 50% in 2 min, to 85% in 15 min, held 3 min, 100 µL/min
# setup conditions: column: Zorbax Extend-C18 2.1 x 50 mm; eluents: water / acetonitrile, 0.1% formic acid
Binary call on RP-LC retention time: yes from 800 s upward, no beneath that.

Worked examples, 4 molecules total:
> print(dat)
                  compound.structure.string  discrete.label
1  O=C(c1ccncc1)N1CCC2(CC1)N=C(c1ccc(Cl)cc1)NO2              no
2       CCCNS(=O)(=O)c1cc2c(cc1C)CCN2C(C)=O              no
3  Cc1nn(Cc2nc(-c3ccc(NC(=O)c4cccs4)cc3)oc2C)c(C)c1C             yes
4  CCOc1ccc(-c2noc(Cc3nnc(-c4ccccc4)o3)n2)cc1             yes

// inclusive: RP-LC retention time at least 800 s? input: `CCc1nnc2cc(N3CCN(C(=O)Nc4ccc(C)cc4)CC3)cnn12`
no

* * *

Catalogue of RP-LC retention time readings, one per entry.
# procedure details: gradient 5% acetonitrile 3 min, to 50% in 2 min, to 85% in 15 min, held 3 min, 100 µL/min
# setup conditions: column: Zorbax Extend-C18 2.1 x 50 mm; eluents: water / acetonitrile, 0.1% formic acid
Please provide the amount together with its unit, number first.

> print(dat)
                                   compound  result
1  COC(=O)c1c(NCCN2CCC(C)CC2)c2cccc(Cl)c2[nH]c1=O   583 s
2      Cc1nc2ccccc2nc1NS(=O)(=O)c1ccc(N)cc1   764 s
3  COc1ccc(Cl)cc1C(=O)Nc1ccc2c(c1)Sc1ncccc1C(=O)N2C   946 s
4  CCCNC(=O)C1CCCN(c2nc3ncn(CC(=O)Nc4cccc(C(C)C)c4)c(=O)c3s2)C1 (stereo unspecified)   802 s
5            O=c1cccnn1CCNS(=O)(=O)c1cccnc1   565 s

Switching to the query record.
Record request: RP-LC retention time value, item `Cc1ccc(CNC(=O)Cn2cnc3c(c(C)c(C)n3-c3ccc(Cl)cc3)c2=O)o1`
930 s

* * *

# procedure details: gradient 5% acetonitrile 3 min, to 50% in 2 min, to 85% in 15 min, held 3 min, 100 µL/min
# setup conditions: column: Zorbax Extend-C18 2.1 x 50 mm; eluents: water / acetonitrile, 0.1% formic acid
recorded metric: RP-LC retention time (s)
Supply the numeric figure in s, leaving out any unit text.

> print(dat)
                                   compound  numeric.readout
1      COCc1cc(=O)n(Cc2ccccc2F)c(N2CCCC2)n1              790
2  O=C(NC1CCCC1)c1ccc2c(c1)CC(=O)N2Cc1ccc(F)cc1              824
3  COc1ccc(S(=O)(=O)Nc2cc(-c3cn4ccc(C)cc4n3)ccc2C)cc1              662
4  CCc1nnc2cc(N3CCN(S(=O)(=O)c4ccc(C)cc4)CC3)cnn12              732
5  Cc1ccc(-c2nc3cnccn3c2Nc2ccc(C(C)C)cc2)cc1             1140

Would you kindly share the measured RP-LC retention time for COCCOCc1nc(C2CCCN2S(=O)(=O)c2cccc3nsnc23)no1 (stereo unspecified) ?
759

Would you mind telling me what RP-LC retention time value was observed for Cc1cc2c(cc1S(=O)(=O)N1CCCC1C(=O)N1CCOCC1)OC(C)C(=O)N2 (stereo unspecified) ?
638

// RP-LC retention time lookup, key: `CCOc1ccc(NC(=O)Cn2c(C)nc3onc(C)c3c2=O)cc1`
755

Can you look up the measured RP-LC retention time of COc1ccccc1C1=NN(C(=O)c2ccccc2C)C(c2ccco2)C1 (stereo unspecified) for me?
976

# lookup: RP-LC retention time of `CCc1cccc(NS(=O)(=O)c2cc(-c3c(CC)noc3NC(C)=O)ccc2OC)c1`
807

Value lookup for RP-LC retention time; key = CC1(C(=O)NCc2ccc(Cl)cc2)CN(S(C)(=O)=O)CC(=O)N1Cc1ccc(F)cc1 (stereo unspecified)
814
